System: Hs-578T
assay protocol: NCI tumour cell line growth inhibition, 48 h
Calls of active or inactive are those of the source. Cut-off read from the data, not from the text of the source: active = GI50 up to about 1.1 µM and inactive = higher. Where a SMILES comes first, the peptide text is derived from it. [ ]: non-standard residue; d: D form. The star is where a group is joined. NMeF = CN[C@@H](Cc1ccccc1)C(=O)O; NMeV = CN[C@H](C(=O)O)C(C)C; Boc = CC(C)(C)OC(=O)*; OBn = c1ccc(CO*)cc1
Classes to choose from: active, inactive

GET /call?item= O=C(CCN1CCCCC1)Nc1ccc2c(c1)C(=O)c1ccc(NC(=O)CCN3CCCCC3)cc1C2=O returns the recorded outcome of this test. inactive

GET /call?item= C=CCN1CCC(OC(=O)C(O)(/C=C\CC)C2CCCC2)CC1 (stereo not drawn) returns the recorded outcome of this test. inactive

GET /call?item= CC1(C)CCC2=C(O1)/C(=N\Nc1ccc(S(N)(=O)=O)cc1)c1ccccc1C2=O returns the recorded outcome of this test. inactive

GET /call?item= COC(=O)c1ccc2c(O)c(O)ccc2c1 returns the recorded outcome of this test. inactive

GET /call?item= O=c1c(-c2ccccc2)c(SCCN2CCCC2)n(-c2ccccc2)c(=S)n1-c1ccccc1 returns the recorded outcome of this test. inactive

GET /call?item= CC1(C)N=C(N)N=C(N)N1c1cccc(C(=O)Nc2ccc(S(=O)(=O)F)cc2)c1 returns the recorded outcome of this test. inactive

GET /call?item= CCCCCCCCCCCCCCCCCCNc1nc(=O)n(C2CC(O)C(COP(=O)(O)OCC(COP(=O)(O)OC3C(CO)OC(n4ccc(N)nc4=O)C3O)OCCCCCCCCCCCCCCCCCC)O2)cc1F (stereo not drawn) returns the recorded outcome of this test. inactive

GET /call?item= Cc1cc(C)nc(NS(=O)(=O)c2ccc(Nc3c4ccccc4nc4c(C(=O)NC(CO)(CO)CO)cccc34)cc2)n1 returns the recorded outcome of this test. inactive

GET /call?item= CC(C)[C@@H](C(=O)N1CCC[C@H]1C(=O)OCc1ccccc1)N(C)C(=O)[C@H](C(C)C)N(C)C(=O)[C@H](Cc1ccccc1)N(C)C(=O)[C@H](NC(=O)OC(C)(C)C)C(C)C (Boc-[dV][NMeF][NMeV][NMeV]P-OBn) returns the recorded outcome of this test. inactive

GET /call?item= CC(C)=CC(=O)C[C@H]1C(=O)O[C@@H]2C[C@H]3C(C)=CC(=O)[C@@H](O)[C@]3(C)[C@H]3[C@@]4(O)OC[C@]32[C@@H]1[C@@H](C)[C@H]4O returns the recorded outcome of this test. active

GET /call?item= Cn1c2ccccc2n2c3ccccc3c(=S)c(C#N)c12 returns the recorded outcome of this test. inactive

GET /call?item= c1cc2nsnc2c2c[nH]cc12 returns the recorded outcome of this test. inactive

GET /call?item= Cc1ccc(S(=O)(=O)Nn2c(O)c(C#N)c(-c3ccc(Cl)cc3)c(C#N)c2=O)cc1 returns the recorded outcome of this test. inactive

GET /call?item= CC(=O)OCC1OC(Sc2nc(-c3ccccc3)c(C#N)c(=O)n2C2OC(COC(C)=O)C(OC(C)=O)C(OC(C)=O)C2OC(C)=O)C(OC(C)=O)C(OC(C)=O)C1OC(C)=O (stereo not drawn) returns the recorded outcome of this test. inactive

GET /call?item= COc1cc(/C=C/C(=O)OCCc2ccccc2)ccc1O returns the recorded outcome of this test. inactive

GET /call?item= CCCCCCNCCc1c[nH]cn1 returns the recorded outcome of this test. inactive

GET /call?item= CC(=O)C(=N\Nc1ccc(Cl)cc1)/C(C)=N/c1ccc(C)cc1 returns the recorded outcome of this test. inactive

GET /call?item= COc1cc2c(cc1-c1coc3cc(O)ccc3c1=O)OCO2 returns the recorded outcome of this test. inactive
